All figures here come from the supplement of paper PMC10598134.

Measured collision cross section by item
# procedure_details: collision cross section of modified peptide (TIMS, N2, iRT-aligned); higher = larger / more extended gas-phase ion
# condition_context: charge state: 3; modification: Methyl (R)

- monomer_sequence: "VTPHPSPRGSPLPTPK [_VTPHPSPR(Methyl (R))GSPLPTPK_]"
  units_text: "Å²"
  collision cross section: 512.12
- monomer_sequence: "HLRGHGPQPPLR [_HLR(Methyl (R))GHGPQPPLR_]"
  units_text: "Å²"
  collision cross section: 492.6
- monomer_sequence: "SGRGGNFGFGDSR [_SGR(Methyl (R))GGNFGFGDSR_]"
  units_text: "Å²"
  collision cross section: 452.71
- monomer_sequence: "PRGVISTPVIR [_PR(Methyl (R))GVISTPVIR_]"
  units_text: "Å²"
  collision cross section: 447.15
- monomer_sequence: "GRGLPGPAESLR [_GR(Methyl (R))GLPGPAESLR_]"
  units_text: "Å²"
  collision cross section: 459.68
- monomer_sequence: "GRGYFEHR [_GR(Methyl (R))GYFEHR_]"
  units_text: "Å²"
  collision cross section: 410.57
- monomer_sequence: "RLPNVHGR [_R(Methyl (R))LPNVHGR_]"
  units_text: "Å²"
  collision cross section: 421.48
- monomer_sequence: "DFAFYNPRLQGK [_DFAFYNPR(Methyl (R))LQGK_]"
  units_text: "Å²"
  collision cross section: 469.16
- monomer_sequence: "GGFQNRGGGSGGGGNYR [_GGFQNR(Methyl (R))GGGSGGGGNYR_]"
  units_text: "Å²"
  collision cross section: 475.78
- monomer_sequence: "SGGYGGSRDYYSSR [_SGGYGGSR(Methyl (R))DYYSSR_]"
  units_text: "Å²"
  collision cross section: 475.52
- monomer_sequence: "GGGGGRGGLHDFR [_GGGGGR(Methyl (R))GGLHDFR_]"
  units_text: "Å²"
  collision cross section: 457.91
- monomer_sequence: "SGGGYGGDRSSGGGYSGDR [_SGGGYGGDR(Methyl (R))SSGGGYSGDR_]"
  units_text: "Å²"
  collision cross section: 484.52
- monomer_sequence: "PRLPATGTFK [_PR(Methyl (R))LPATGTFK_]"
  units_text: "Å²"
  collision cross section: 458.58
- monomer_sequence: "GRGAPPPPPSR [_GR(Methyl (R))GAPPPPPSR_]"
  units_text: "Å²"
  collision cross section: 437.5
- monomer_sequence: "TLHLSHLNRFPAR [_TLHLSHLNR(Methyl (R))FPAR_]"
  units_text: "Å²"
  collision cross section: 503.65
- monomer_sequence: "GRGGAESHTFK [_GR(Methyl (R))GGAESHTFK_]"
  units_text: "Å²"
  collision cross section: 441.34
- monomer_sequence: "PGTPAGYGRGR [_PGTPAGYGR(Methyl (R))GR_]"
  units_text: "Å²"
  collision cross section: 449.19
- monomer_sequence: "HGGSGGRGVSVSSAR [_HGGSGGR(Methyl (R))GVSVSSAR_]"
  units_text: "Å²"
  collision cross section: 477.29
- monomer_sequence: "RGATPPAPPRR [_R(Methyl (R))GATPPAPPRR_]"
  units_text: "Å²"
  collision cross section: 465.62
- monomer_sequence: "VTRYPILGIPQAHR [_VTR(Methyl (R))YPILGIPQAHR_]"
  units_text: "Å²"
  collision cross section: 524.3
- monomer_sequence: "DNNNSNNRGSYNR [_DNNNSNNR(Methyl (R))GSYNR_]"
  units_text: "Å²"
  collision cross section: 460.8
- monomer_sequence: "GVPRGVHLGSQGLQR [_GVPR(Methyl (R))GVHLGSQGLQR_]"
  units_text: "Å²"
  collision cross section: 492.74
- monomer_sequence: "GSYLGGYSAGRGIYSR [_GSYLGGYSAGR(Methyl (R))GIYSR_]"
  units_text: "Å²"
  collision cross section: 481.98

====

Measured collision cross section by item
# procedure_details: collision cross section of modified peptide (TIMS, N2, iRT-aligned); higher = larger / more extended gas-phase ion
# condition_context: charge state: 3; modification: Trimethyl (K)
± gives the standard deviation.
assay_readout: collision cross section

- monomer_sequence: "LLEEEDSKLK [_LLEEEDSK(Trimethyl (K))LK_]"
  test_value: "441.46 ± 2.4 Å²"
- monomer_sequence: "AAQASDLEKIHLDEK [_AAQASDLEK(Trimethyl (K))IHLDEK_]"
  test_value: "500.66 ± 1.6 Å²"
- monomer_sequence: "VNVEAPDVNLEGLGGKLK [_VNVEAPDVNLEGLGGK(Trimethyl (K))LK_]"
  test_value: "545.57 ± 1.8 Å²"
- monomer_sequence: "AGQKLIDVNHYAK [_AGQK(Trimethyl (K))LIDVNHYAK_]"
  test_value: "474.3 ± 1.8 Å²"
- monomer_sequence: "LQEKVESAQSEQK [_LQEK(Trimethyl (K))VESAQSEQK_]"
  test_value: "470.87 ± 1.8 Å²"
- monomer_sequence: "DHLSDKESK [_DHLSDK(Trimethyl (K))ESK_]"
  test_value: "401.61 ± 0.025 Å²"
- monomer_sequence: "VPTTEKPTVTVNFR [_VPTTEK(Trimethyl (K))PTVTVNFR_]"
  test_value: "499.21 ± 1.6 Å²"
- monomer_sequence: "GETASKLQSEISR [_GETASK(Trimethyl (K))LQSEISR_]"
  test_value: "463.43 ± 1.5 Å²"
- monomer_sequence: "DLSTVEALQNLKNLK [_DLSTVEALQNLK(Trimethyl (K))NLK_]"
  test_value: "501.71 ± 2.5 Å²"
- monomer_sequence: "VSPASSVDSNIPSSQGYKK [_VSPASSVDSNIPSSQGYK(Trimethyl (K))K_]"
  test_value: "548.09 ± 0.9 Å²"
- monomer_sequence: "LDEKENLSAK [_LDEK(Trimethyl (K))ENLSAK_]"
  test_value: "441.92 ± 3.4 Å²"
- monomer_sequence: "TLQKQSVVYGGK [_TLQK(Trimethyl (K))QSVVYGGK_]"
  test_value: "449.39 ± 2.4 Å²"
- monomer_sequence: "IISSIEQKEENK [_IISSIEQK(Trimethyl (K))EENK_]"
  test_value: "448.49 ± 1.5 Å²"
- monomer_sequence: "FDDTNPEKEEAK [_FDDTNPEK(Trimethyl (K))EEAK_]"
  test_value: "487.6 ± 1.9 Å²"
- monomer_sequence: "ITGKNQVTATK [_ITGK(Trimethyl (K))NQVTATK_]"
  test_value: "426.22 Å²"
- monomer_sequence: "GTISAPGKVVTAAAQAK [_GTISAPGK(Trimethyl (K))VVTAAAQAK_]"
  test_value: "496.52 ± 0.86 Å²"
- monomer_sequence: "LTEKELAEAASK [_LTEK(Trimethyl (K))ELAEAASK_]"
  test_value: "451.11 ± 2.4 Å²"
- monomer_sequence: "VDIDAPDVSIEGPDAKLK [_VDIDAPDVSIEGPDAK(Trimethyl (K))LK_]"
  test_value: "534.07 ± 1.8 Å²"
- monomer_sequence: "IQTKAGEATVK [_IQTK(Trimethyl (K))AGEATVK_]"
  test_value: "436.23 Å²"
- monomer_sequence: "IQQELQTAKK [_IQQELQTAK(Trimethyl (K))K_]"
  test_value: "436.54 ± 2.4 Å²"
- monomer_sequence: "TVSKVDDFLANEAK [_TVSK(Trimethyl (K))VDDFLANEAK_]"
  test_value: "482.88 ± 1.6 Å²"
